The reported numbers originate from patent US20230118688A1.

# TEST_SYSTEM: human TLR7 (Homo sapiens, UniProt Q9NYK1)
# Construct: host or cells: HEK-Blue TLR7 cells (engineered human embryonic kidney cells)
# Sequence (Q9NYK1 27-1049): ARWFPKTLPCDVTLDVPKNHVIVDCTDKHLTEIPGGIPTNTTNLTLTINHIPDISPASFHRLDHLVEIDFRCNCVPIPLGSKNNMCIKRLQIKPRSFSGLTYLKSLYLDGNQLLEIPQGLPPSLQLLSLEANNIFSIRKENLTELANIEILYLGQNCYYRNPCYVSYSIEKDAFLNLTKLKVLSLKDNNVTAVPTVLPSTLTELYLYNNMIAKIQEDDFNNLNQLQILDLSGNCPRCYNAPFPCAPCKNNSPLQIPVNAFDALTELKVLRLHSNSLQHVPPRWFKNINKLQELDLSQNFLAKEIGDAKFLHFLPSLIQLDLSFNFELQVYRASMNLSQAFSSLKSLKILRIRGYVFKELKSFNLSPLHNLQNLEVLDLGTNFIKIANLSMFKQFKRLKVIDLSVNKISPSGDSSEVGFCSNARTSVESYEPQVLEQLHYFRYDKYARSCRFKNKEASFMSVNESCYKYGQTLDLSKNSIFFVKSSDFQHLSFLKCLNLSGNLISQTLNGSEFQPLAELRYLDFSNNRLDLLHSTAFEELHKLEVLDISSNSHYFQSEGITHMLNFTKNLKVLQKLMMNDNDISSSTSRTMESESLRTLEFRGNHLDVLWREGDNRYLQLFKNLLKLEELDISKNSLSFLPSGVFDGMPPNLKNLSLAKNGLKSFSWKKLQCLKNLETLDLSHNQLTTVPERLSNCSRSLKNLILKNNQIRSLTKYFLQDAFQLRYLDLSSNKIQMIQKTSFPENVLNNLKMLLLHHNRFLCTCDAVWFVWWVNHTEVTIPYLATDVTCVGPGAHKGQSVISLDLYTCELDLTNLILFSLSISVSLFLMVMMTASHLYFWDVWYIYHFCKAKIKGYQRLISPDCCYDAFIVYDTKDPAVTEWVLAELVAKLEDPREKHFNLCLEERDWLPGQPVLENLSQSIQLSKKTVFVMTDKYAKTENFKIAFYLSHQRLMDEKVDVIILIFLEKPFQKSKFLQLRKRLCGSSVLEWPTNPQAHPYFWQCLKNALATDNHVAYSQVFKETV
# TEST: Human TLR7 agonist activity reporter assay (HEK-Blue TLR7 cells, SEAP reporter)
# Assay type: cell-based
# EXPERIMENTAL_CONTEXT: 18 h treatment, average where assay repeated, Table A1, read-out: hTLR7 Agonism EC50
# Description: This procedure describes a method for assaying human TLR7 (hTLR7) agonist activity of the compounds disclosed in this specification. HEK-Blue™ TLR7 cells were added to each well of a 384-well tissue-culture plate (15,000 cells per well) and incubated 16-18 h at 37° C., 5% CO2. […] After 18 h treatment ten microliters of freshly-prepared Quanti-Blue™ reagent (Invivogen) was added to each well, incubated for 30 min (37° C., 5% CO2) and SEAP levels measured using an Envision plate reader (OD=620 nm). […]
pEC50 values for the compounds below.
Give only the number. pEC50 is defined as minus log10 of concentration in molar units.

Study these solved cases before continuing.
1. CCC[C@@H](CCO)Nc1nc(N)nc2cnn(Cc3cc(CN[C@@H]4COC[C@H]4O)ccc3OC)c12 ... 6.51
2. CCCCNc1nc(N)nc2cnn(Cc3cc(CN(C)CCN(C)C)ccc3OC)c12 ... 6.75
3. CCCCNc1nc(N)nc2cnn(Cc3cc(CNC4CCCC4)ccc3OC)c12 ... 6.26

Now for the compound whose pEC50 we want.
human TLR7 (Homo sapiens, UniProt Q9NYK1) pEC50 of CCCCNc1nc(N)nc2cnn(Cc3cc(CNC4CC(O)C4)ccc3OC)c12 (stereo not shown) is 6.48

* * *

# TEST_SYSTEM: human TLR7 (Homo sapiens)
# Construct: host or cells: HEK-Blue TLR7 cells (engineered human embryonic kidney cells)
# TEST: Human TLR7 agonist activity reporter assay (HEK-Blue TLR7 cells, SEAP reporter)
# Type: cell-based
# EXPERIMENTAL_CONTEXT: 18 h treatment, average where assay repeated, Table A1, read-out: hTLR7 Agonism EC50
EXPERIMENTAL_ENDPOINT: EC50 (nM)
Your answer is read as nM, so omit the unit and give the number.

1. CCCCNc1nc(N)nc2cnn(Cc3cc(CN4CCCN(C)CC4)ccc3OC)c12 ... 112
2. CCC[C@@H](CCO)Nc1nc(N)nc2c(C)nn(Cc3cc(CN4CCN(CCO)CC4)ccc3OC)c12 ... 98.6
3. CCCCNc1nc(N)nc2cnn(Cc3cc(CN(C)CCNC)ccc3OC)c12 ... 158

Now for the compound whose EC50 we want.
The recorded EC50 for entry CCC[C@@H](CCO)Nc1nc(N)nc2cnn(Cc3cc(CN[C@@H]4COCC[C@H]4O)ccc3OC)c12 equals 213
